Measured cell count values are reported for all entries that follow.
- methodNotes: viability loss with induced miR-34 in A549 – imaging, A549 dox-inducible miR-34, nuclei and caspase counts, primary screen (AID 1347080); note: test concentration not given here
- experimentalConditions: A549 miR-34 inducible, Hoechst nuclei count, 48 h; measured here: total cells without miR-34 induction

Example cases with answers are listed next.
{"structureSmiles": "COc1ccccc1CN[C@@H]1CCCN[C@@H]1c1ccccc1", "cell count": 9860}
{"structureSmiles": "NC(N)=[N+]1CCc2ccccc2C1", "cell count": 8500}
{"structureSmiles": "CCCCC[C@H](O)CC(=O)CCc1ccc(O)c(OC)c1", "cell count": 5440}

What does the record list as cell count for `CCCCCCCCCCCCCCCC(=O)N[C@@H](COP(=O)(O)O)C(=O)O` ?
5940

What does the record list as cell count for `COc1ccc(CN(C)C(=O)Nc2nc(C)n(C)n2)c2cccnc12` ?
9980

What does the record list as cell count for `c1ccc(-c2noc(-c3cccc4cccnc34)n2)nc1` ?
8740
